TARGET OF ASSAY: serotoninergic 5-HT1A receptor (Homo sapiens)
Sequence (P08908 whole entry): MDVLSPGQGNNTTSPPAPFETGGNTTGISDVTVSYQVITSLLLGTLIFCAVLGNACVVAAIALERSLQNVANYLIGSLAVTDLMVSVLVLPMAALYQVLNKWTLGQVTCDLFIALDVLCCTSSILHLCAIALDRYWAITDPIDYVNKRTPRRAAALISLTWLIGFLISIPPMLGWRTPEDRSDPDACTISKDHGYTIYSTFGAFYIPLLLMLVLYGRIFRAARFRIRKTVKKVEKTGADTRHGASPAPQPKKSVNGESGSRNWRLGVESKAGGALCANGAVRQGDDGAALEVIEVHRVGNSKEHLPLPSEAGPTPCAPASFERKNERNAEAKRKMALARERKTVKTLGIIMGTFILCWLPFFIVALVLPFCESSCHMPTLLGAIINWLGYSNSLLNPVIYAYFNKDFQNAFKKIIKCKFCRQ
MEASUREMENT NOTES: Cellular functional assay, serotoninergic 5-HT1A receptor (agonism/antagonism)
Format: cell-based
SETTINGS: agonist effect, percent of control specific agonist response (100 nM 8-OH-DPAT for control); 1×10^−6 M; 5-HT1A (h), CHO cells; read-out: 5-HT1A-ag [%]
For each of the compounds below, state its activation at 1 µM.
Field format: number, assumed %, no unit text.

What measured activation at 1 µM goes with `O=S(=O)(NCCCCN1CCN(c2cccc3[nH]ccc23)CC1)c1ccc2ccccc2c1` ? 67

# lookup: activation at 1 µM of `O=c1[nH]c2ccc(S(=O)(=O)NCCCCN3CCN(c4noc5ccccc45)CC3)cc2o1` -14

# get_value(readout='activation at 1 µM', item= `O=S(=O)(NCCCCN1CCN(c2cccc3[nH]ccc23)CC1)c1ccccc1` ) 56

Suppose we examine the compound `O=S(=O)(NCCCCN1CCN(c2cccc3[nH]ccc23)CC1)c1cc2ccccc2s1` ; what activation at 1 µM value has been reported? 63

Query (compound): `O=S(=O)(NCCCCN1CCN(c2cccc3[nH]ccc23)CC1)c1cnc2ccccn12` ; field requested: activation at 1 µM 22

Give its activation at 1 µM value. Item: `O=S(=O)(NCCCCN1CCN(c2nsc3ccccc23)CC1)c1cc2ccc(Cl)cc2s1` 5

Dear colleague, I am looking for the recorded activation at 1 µM of the following compound: `O=S(=O)(NCCCCN1CCN(c2cccc3[nH]ccc23)CC1)c1cc2ccc(Cl)cc2s1` 78

# lookup: activation at 1 µM of `O=S(=O)(NCCCCN1CCN(c2cccc3[nH]ccc23)CC1)c1ccc2cc(Cl)ccc2c1` 22

Given the compound `O=S(=O)(NCCCCN1CCN(c2cccc3[nH]ccc23)CC1)c1ccc(F)cc1` , what is its reported activation at 1 µM? 22

Entry `Cc1c(S(=O)(=O)NCCCN2CCC(c3noc4cc(F)ccc34)CC2)sc2ccc(F)cc12` has what activation at 1 µM? 1

Fill in: activation at 1 µM of `O=S(=O)(NCCCCN1CCC(c2noc3cc(F)ccc23)CC1)c1ccc2cc(Cl)ccc2c1` is ___ 13

Consider the compound `O=c1[nH]c2cccc(N3CCN(CCCNS(=O)(=O)c4cccc5ccccc45)CC3)c2[nH]1` and give its measured activation at 1 µM. 35

Need activation at 1 µM, item `O=S(=O)(NCCCCN1CCN(c2nsc3ccccc23)CC1)c1ccc2cc(Cl)ccc2c1` 75

State the recorded activation at 1 µM for this entry: `Cc1[nH]c2ccc(Cl)cc2c1C1=CCN(CCNS(=O)(=O)c2cccc(Cl)c2)CC1` 30

Value lookup for activation at 1 µM; key = `O=S(=O)(NCCCCN1CCN(c2cccc3[nH]ccc23)CC1)c1cccc(F)c1` 63

Looking for the measured activation at 1 µM of `Cc1cccc(S(=O)(=O)NCCCN2CCC(c3noc4cc(F)ccc34)CC2)c1` , can you help? 0

Reported activation at 1 µM, compound `Cc1c(S(=O)(=O)NCCCCN2CCN(c3nsc4ccccc34)CC2)sc2ccc(F)cc12` : ____ 9

Fill in the blank: the reported activation at 1 µM of `Cc1c(S(=O)(=O)NCCCCN2CCN(c3noc4ccccc34)CC2)sc2ccc(F)cc12` is ____. 5

Dear colleague, I am looking for the recorded activation at 1 µM of the following compound: `Cc1cccc(S(=O)(=O)NCCCN2CCN(c3nsc4ccccc34)CC2)c1` 59

Data request, read-out activation at 1 µM, for `O=c1[nH]c2cccc(N3CCN(CCCNS(=O)(=O)c4ccc5ccccc5c4)CC3)c2[nH]1` 23

Would you kindly share the measured activation at 1 µM for `O=c1[nH]c2ccc(S(=O)(=O)NCCCN3CCN(c4nsc5ccccc45)CC3)cc2o1` ? 14

// returns reported activation at 1 µM for input `O=S(=O)(NCCCCN1CCN(c2nsc3ccccc23)CC1)c1cc2ccccc2s1` 7

For the compound shown here, `O=S(=O)(NCCCCN1CCN(c2nsc3ccccc23)CC1)c1csc2ccccc12` , give the reported activation at 1 µM. 9

Value lookup for activation at 1 µM; key = `O=S(=O)(NCCCCN1CCN(c2cccc3[nH]ccc23)CC1)c1cccc(Cl)c1` 32

Bench note: what activation at 1 µM did `O=S(=O)(NCCCCN1CCN(c2cccc3[nH]ccc23)CC1)c1ccc(F)c(F)c1` show? 71
